Tested on: SK-BR-3
Assay: normalised viability (% of control), CellTiter-Blue; higher = more viable cells (about 100 = DMSO control)
Conditions: 10000 nM; incubation time: 72 h
Lab note - cut at 60% for normalised viability: Yes if strictly below, No if not.

Below 60% on normalised viability? Entry C=CCNC1=C2C[C@@H](C)C[C@H](OC)[C@H](O)[C@@H](C)/C=C(\C)[C@H](OC(N)=O)[C@@H](OC)/C=C\C=C(/C)C(=O)NC(=CC1=O)C2=O [Tanespimycin] Yes

# check: normalised viability < 60% for S=c1[nH]cnc2nc[nH]c12 [Mercaptopurine] No

Dear reviewer, please state whether CN(C)C/C=C/C(=O)Nc1cc2c(Nc3ccc(F)c(Cl)c3)ncnc2cc1O[C@H]1CCOC1 [Afatinib] has normalised viability strictly beneath 60%. Yes

Please indicate whether the reported normalised viability of Nc1ccn([C@@H]2O[C@H](CO)[C@@H](O)[C@@H]2O)c(=O)n1 [Cytarabine] is strictly below 60%. Yes

hey, is normalised viability for Clc1ccc(C(c2ccccc2Cl)C(Cl)Cl)cc1 (stereo unspecified) [Mitotane] lower than 60% or not? No

Here's an entry: OC[C@H]1O[C@@H](n2cnc3c2N=CNC[C@H]3O)C[C@@H]1O [Pentostatin] . Is its normalised viability below 60%? No

###

System: CAL-120
Assay: normalised viability (% of control), CellTiter-Blue; higher = more viable cells (about 100 = DMSO control)
Settings: 1000 nM; incubation time: 72 h
QUANTITY: normalised viability (%)
Reply with just the number (in %).

Requested field: normalised viability. Item: N#CC[C@H](C1CCCC1)n1cc(-c2ncnc3[nH]ccc23)cn1 99

What value of normalised viability has been recorded for this entry: C=CCNC1=C2C[C@@H](C)C[C@H](OC)[C@H](O)[C@@H](C)/C=C(\C)[C@H](OC(N)=O)[C@@H](OC)/C=C\C=C(/C)C(=O)NC(=CC1=O)C2=O 24.2

I have this compound here, COc1cccc2c1C(=O)c1c(O)c3c(c(O)c1C2=O)C[C@@](O)(C(=O)CO)C[C@@H]3O[C@H]1C[C@H](N)[C@H](O)[C@H](C)O1 , and I need its recorded normalised viability. 6.93

Name the reported normalised viability value associated with the compound CN(C)C/C=C/C(=O)Nc1cc2c(Nc3ccc(F)c(Cl)c3)ncnc2cc1O[C@H]1CCOC1 66.1

Need normalised viability, item CN1CCC(COc2cnc(-c3cccc(Cn4nc(-c5cccc(C#N)c5)ccc4=O)c3)nc2)CC1 116

###

Hi there, I'd appreciate the recorded drug sensitivity score for every entry that follows.
Test system: CAL-85-1
Experiment: drug sensitivity score (DSS), CellTiter-Blue viability (DSS (AUC-based score)); higher = stronger viability inhibition; extreme values may be limits of the assay
Details: incubation time: 72 h
Lab note: write the figure by itself, no unit.

Item N#CC[C@H](C1CCCC1)n1cc(-c2ncnc3[nH]ccc23)cn1 has what recorded drug sensitivity score? 0

What value of drug sensitivity score has been reported for the following compound? Clc1ccc(C(c2ccccc2Cl)C(Cl)Cl)cc1 (configuration not stated) 0

Need drug sensitivity score of Cc1c2oc3c(C)ccc(C(=O)N[C@@H]4C(=O)N[C@H](C(C)C)C(=O)N5CCC[C@H]5C(=O)N(C)CC(=O)N(C)[C@@H](C(C)C)C(=O)O[C@@H]4C)c3nc-2c(C(=O)N[C@@H]2C(=O)N[C@H](C(C)C)C(=O)N3CCC[C@H]3C(=O)N(C)CC(=O)N(C)[C@@H](C(C)C)C(=O)O[C@@H]2C)c(N)c1=O , thanks. 30.9

Given COc1cccc2c1C(=O)c1c(O)c3c(c(O)c1C2=O)C[C@@](O)(C(=O)CO)C[C@@H]3O[C@H]1C[C@H](N)[C@H](O)[C@H](C)O1 , state its recorded drug sensitivity score. 5.11

Could you tell me which drug sensitivity score is on file for C=CCNC1=C2C[C@@H](C)C[C@H](OC)[C@H](O)[C@@H](C)/C=C(\C)[C@H](OC(N)=O)[C@@H](OC)/C=C\C=C(/C)C(=O)NC(=CC1=O)C2=O ? 15.7

Query (compound): CN1CCC(COc2cnc(-c3cccc(Cn4nc(-c5cccc(C#N)c5)ccc4=O)c3)nc2)CC1 ; field requested: drug sensitivity score 3.23

Return reported drug sensitivity score; argument: COc1cccc2cc(-c3nc([C@H]4CC[C@H](C(=O)O)CC4)n4ncnc(N)c34)[nH]c12 9.36

Numbers sourced from the supplement of paper PMC4862054.
